- Assay System: Human Synovial PLA2 (Homo sapiens, UniProt P14555)
- Construct: Purified human synovial fluid; from tissue; host or cells: human synovial fluid (purified)
- Sequence (P14555 21-144): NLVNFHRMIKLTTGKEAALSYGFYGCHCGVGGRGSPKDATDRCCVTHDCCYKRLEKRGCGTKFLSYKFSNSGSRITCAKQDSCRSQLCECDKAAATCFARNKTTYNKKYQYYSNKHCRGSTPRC
- Test Method Notes: Inhibition of PLA2 derived from human synovial fluid (HSF), arachidonic acid release from 3H-AA E. coli substrate
- Format: biochemical
- Condition Details: Drug Concentration 10 μM; Example 8: average of two runs; 10 µM
Readout Type: % Inhibition HSF (%)
Numbers only, in %.

compound="CCCCCCCCC#CCCCCCCCC(=O)Nc1nc(CC(=O)O)cs1 [Example 4]" result=42.5
compound="CCCCCCCCC#CCCCCCCCC(=O)Nc1nc(CC(=O)O)cs1 [Example 5]" result=66
compound="CCCC/C=C\\CCCCCCCC(=O)Nc1nc(CC(=O)O)cs1 [Example 8]" result=2

Kindly review the next compound as well.
### Prompt Sample CCCC/C=C\CCCCCCCC(=O)Nc1nc(CC(=O)O)cs1 [Example 9] — what was its % Inhibition HSF?
### Response 26.9
